tested on: HCT-116; test: NCI60 antiproliferative screen, colon HCT-116; type: cell-based, human; settings: HCT-116, 48 h, sulforhodamine B; read-out: Cytotoxicity (GI50) Colon HCT-116
OBSERVABLE: GI50 (nM)
API: value field is a number in nM; no unit string.

(Q) Output GI50 of COC(=O)CCC(=O)Oc1cc2c(=O)n(CCCN3CCOCC3)c3c(c2cc1OC)C(=O)c1cc2c(cc1-3)OCO2 [Compound 17]
(A) 20

(Q) Output GI50 of COC(=O)CCC(=O)Oc1cc2c3c(n(CCCN4CCOCC4)c(=O)c2cc1OC)-c1cc2c(cc1C3=O)OCO2 [Compound 12]
(A) 14

(Q) Output GI50 of COc1cc2c(=O)n(CCCN3CCOCC3)c3c(c2cc1OC(=O)c1ccccc1)C(=O)c1cc2c(cc1-3)OCO2 [Compound 13]
(A) 850

(Q) Output GI50 of COc1cc2c(=O)n(CCCN3CCOCC3)c3c(c2cc1OC(C)=O)C(=O)c1cc2c(cc1-3)OCO2 [Compound 11]
(A) 29

(Q) Output GI50 of COc1cc2c3c(n(CCCN4CCOCC4)c(=O)c2cc1OS(=O)(=O)O)-c1cc2c(cc1C3=O)OCO2 [Compound 20]
(A) 389

(Q) Output GI50 of COc1cc2c3c(n(CCCN4CCOCC4)c(=O)c2cc1OC(=O)c1ccccc1)-c1cc2c(cc1C3=O)OCO2 [Compound 18]
(A) 5890
